Give measured fold loss in affinity (cf rapamycin) for each item. Keep answers brief.
# Assayed target: human FKBP12 (Homo sapiens)
# Sequence (P62942 whole entry): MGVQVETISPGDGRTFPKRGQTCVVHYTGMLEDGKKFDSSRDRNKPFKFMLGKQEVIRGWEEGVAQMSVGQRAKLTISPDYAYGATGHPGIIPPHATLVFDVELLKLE
# Protocol text: competitive fluorescence polarization (FP) FKBP binding assay
# Particulars: =IC50/IC50 of rapamycin; C7 rapalogs

Record fold loss in affinity (cf rapamycin) per entry; entries follow.
1. COC1CC(CC(C)C2CC(=O)C(C)C=C(C)C(O)C(OC)C(=O)C(C)CC(C)C=CC=CC=C(C)C(c3ccc(C)s3)CC3CCC(C)C(O)(O3)C(=O)C(=O)N3CCCCC3C(=O)O2)CCC1O (stereo not shown) [Compound 36]
2. CCOC1C[C@@H]2CC[C@@H](C)[C@@](O)(O2)C(=O)C(=O)N2CCCC[C@H]2C(=O)O[C@H]([C@H](C)C[C@@H]2CC[C@@H](O)[C@H](OC)C2)CC(=O)[C@H](C)/C=C(\C)[C@@H](O)[C@@H](OC)C(=O)[C@H](C)C[C@H](C)/C=C/C=C/C=C/1C (stereo partly shown) [Compound 27]

Result block:
1: 1.6; 2: 1.1

List reported fold loss in affinity (cf rapamycin) for each of these compounds:
1. COC1CC(CC(C)C2CC(=O)C(C)C=C(C)C(O)C(OC)C(=O)C(C)CC(C)C=CC=CC=C(C)C(c3ccc(C)s3)CC3CCC(C)C(O)(O3)C(=O)C(=O)N3CCCCC3C(=O)O2)CCC1O (stereo not shown) [Compound 37]
2. CCOC1C[C@@H]2CC[C@@H](C)[C@@](O)(O2)C(=O)C(=O)N2CCCC[C@H]2C(=O)O[C@H]([C@H](C)C[C@@H]2CC[C@@H](O)[C@H](OC)C2)CC(=O)[C@H](C)/C=C(\C)[C@@H](O)[C@@H](OC)C(=O)[C@H](C)C[C@H](C)/C=C/C=C/C=C/1C (stereo partly shown) [Compound 28]

Result block:
1. 1.9
2. 1.6

src = patent US6693189B2
